Let's look at some compounds and their measured IC50.
Molecular target: Human HDAC4 (Homo sapiens)
Construct: amino acids 627-1085 with N-terminal GST tag; GST (N); host or cells: baculovirus expression system
Sequence (P56524 627-1084 limits assumed): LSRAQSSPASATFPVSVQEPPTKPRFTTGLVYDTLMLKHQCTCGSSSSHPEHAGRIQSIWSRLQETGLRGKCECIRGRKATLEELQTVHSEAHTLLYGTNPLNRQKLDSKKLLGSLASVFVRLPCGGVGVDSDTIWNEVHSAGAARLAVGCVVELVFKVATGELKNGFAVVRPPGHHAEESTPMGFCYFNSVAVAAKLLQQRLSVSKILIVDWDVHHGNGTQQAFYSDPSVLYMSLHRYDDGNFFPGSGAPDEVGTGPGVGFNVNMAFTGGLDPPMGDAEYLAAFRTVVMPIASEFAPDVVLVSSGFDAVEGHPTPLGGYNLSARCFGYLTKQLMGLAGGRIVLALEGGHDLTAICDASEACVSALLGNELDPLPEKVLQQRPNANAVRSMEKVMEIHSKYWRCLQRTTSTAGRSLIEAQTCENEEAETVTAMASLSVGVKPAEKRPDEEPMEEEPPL
Experiment: HDAC4 biochemical assay, class IIa-specific substrate
Conditions: read-out: HDAC Isoform IC50 (nM) 4

{"columns": ["chemical.smiles", "IC50"],
 "data": [
  ["O=C(c1cnnc(N(Cc2ccc(-c3noc(C(F)(F)F)n3)s2)c2cnccn2)c1)N1CC(F)(F)C1", "≤ 10000 nM"],
  ["Cc1cnc(N(Cc2ccc(-c3noc(C(F)(F)F)n3)s2)c2cnccn2)nc1", "≤ 10000 nM"],
  ["COc1nccnc1N(Cc1ccc(-c2noc(C(F)(F)F)n2)s1)c1cnccn1", "≤ 10000 nM"],
  ["Cn1ccc2nc(N(Cc3ccc(-c4noc(C(F)(F)F)n4)s3)c3cnccn3)cnc21", "≤ 10000 nM"],
  ["COc1cncc(N(Cc2ccc(-c3noc(C(F)(F)F)n3)s2)c2cc(C(F)(F)F)cnn2)n1", "≤ 10000 nM"],
  ["Cc1cnnc(N(Cc2ccc(-c3noc(C(F)(F)F)n3)s2)c2cnccn2)c1", "≤ 1000 nM"],
  ["FC(F)(F)c1nc(-c2ccc(CN(c3cccnc3)c3cnccn3)s2)no1", "≤ 500 nM"],
  ["FC(F)(F)c1cnnc(N(Cc2ccc(-c3noc(C(F)(F)F)n3)s2)c2cc(C(F)(F)F)cnn2)c1", "≤ 10000 nM"],
  ["FC(F)(F)c1nc(-c2ccc(CN(c3ccc(C4CC4)cn3)c3cnccn3)s2)no1", "≤ 10000 nM"],
  ["Cc1cnc(N(Cc2ccc(-c3noc(C(F)(F)F)n3)s2)c2cnccn2)cn1", "≤ 1000 nM"],
  ["O=C(c1ccc(N(Cc2ccc(-c3noc(C(F)(F)F)n3)s2)c2cnccn2)nn1)N1CCC12COC2", "≤ 500 nM"],
  ["FC(F)(F)c1cnnc(N(Cc2ccc(-c3noc(C(F)(F)F)n3)s2)c2ccc(N3CCOCC3)nn2)c1", "≤ 10000 nM"]
]}

###

Recorded IC50 for the following compounds
Target: Human HDAC9 (Homo sapiens)
Construct: amino acids 604-1066 with C-terminal His tag; His (C); host or cells: baculovirus expression system
Sequence (Q9UKV0 604-1066 isoform Q9UKV0-5): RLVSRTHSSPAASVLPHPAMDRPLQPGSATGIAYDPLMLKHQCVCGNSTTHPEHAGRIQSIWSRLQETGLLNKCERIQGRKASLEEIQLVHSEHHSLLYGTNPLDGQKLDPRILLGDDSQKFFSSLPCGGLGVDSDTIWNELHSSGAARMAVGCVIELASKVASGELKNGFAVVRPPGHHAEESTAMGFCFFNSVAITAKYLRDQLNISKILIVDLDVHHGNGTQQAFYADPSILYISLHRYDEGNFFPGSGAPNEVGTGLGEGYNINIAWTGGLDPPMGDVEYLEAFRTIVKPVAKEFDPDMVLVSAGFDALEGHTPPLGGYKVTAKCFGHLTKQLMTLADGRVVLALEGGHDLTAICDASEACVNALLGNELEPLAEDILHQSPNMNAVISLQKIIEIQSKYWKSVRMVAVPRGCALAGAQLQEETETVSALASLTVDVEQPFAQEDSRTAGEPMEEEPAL
Assay: HDAC9 biochemical assay, class IIa-specific substrate
Conditions: read-out: HDAC Isoform IC50 (nM) 9
Experimental: Activity against all zinc-dependent HDACs 1 to 11 was assessed by using an acetylated AMC-labeled peptide substrate. The substrate RHKK(Ac)AMC was used for HDAC1, HDAC2, HDAC3, HDAC6 and HDAC10; the substrate used for HDAC8 was RHK(Ac)K(Ac)AMC. Activity against the class IIa HDACs (HDAC4, 5, 7, 9) and HDAC11 was determined using a class IIa-specific substrate, BOC-Lys(trifluoroacetyl)-AMC (“Trifluoroacetyl Lysine”; see Lahm et al, 2007, PNAS, 104, 17335-17340). […]

{"columns": ["chemical.smiles", "IC50"],
 "data": [
  ["CN(C)C(=O)c1cncc(N(Cc2ccc(-c3noc(C(F)(F)F)n3)s2)c2cnccn2)n1", "≤ 10000 nM"],
  ["FC(F)(F)c1nc(-c2ccc(CN(c3cnccn3)c3ccc(N4CCCC4)nn3)s2)no1", "≤ 10000 nM"],
  ["CN1CCN(C(=O)c2cnnc(N(Cc3ccc(-c4noc(C(F)(F)F)n4)s3)c3cnccn3)c2)CC1", "≤ 10000 nM"],
  ["COC1CN(C(=O)c2ccc(N(Cc3ccc(-c4noc(C(F)(F)F)n4)s3)c3cnccn3)nn2)C1", "≤ 500 nM"],
  ["FC(F)(F)c1cnnc(N(Cc2ccc(-c3noc(C(F)(F)F)n3)s2)c2cncnc2)c1", "≤ 10000 nM"],
  ["O=C(O)c1ccc(N(Cc2ccc(-c3noc(C(F)(F)F)n3)s2)c2cnccn2)nn1", "≤ 10000 nM"],
  ["COc1ccc(N(Cc2ccc(-c3noc(C(F)(F)F)n3)s2)c2cnccn2)nn1", "≤ 10000 nM"],
  ["O=C(c1cncc(N(Cc2ccc(-c3noc(C(F)(F)F)n3)s2)c2cnccn2)c1)N1CCOCC1", "≤ 10000 nM"],
  ["CS(=O)(=O)c1ncc(N(Cc2ccc(-c3noc(C(F)(F)F)n3)s2)c2cnccn2)cn1", "≤ 10000 nM"],
  ["Cn1cnc2cc(N(Cc3ccc(-c4noc(C(F)(F)F)n4)s3)c3cnccn3)ncc21", "≤ 10000 nM"],
  ["FC(F)(F)c1nc(-c2ccc(CN(c3cnccn3)c3nccc4nccnc34)s2)no1", "≤ 10000 nM"],
  ["COc1cncc(N(Cc2ccc(-c3noc(C(F)(F)F)n3)s2)c2cc(C(F)(F)F)cnn2)n1", "> 10000 nM"],
  ["Nc1cnnc(N(Cc2ccc(-c3noc(C(F)(F)F)n3)s2)c2cnccn2)c1", "≤ 1000 nM"],
  ["COC1CN(C(=O)c2cnnc(N(Cc3ccc(-c4noc(C(F)(F)F)n4)s3)c3cnccn3)c2)C1", "≤ 10000 nM"],
  ["O=C(c1cnnc(N(Cc2ccc(-c3noc(C(F)(F)F)n3)s2)c2cnccn2)c1)N1C[C@H]2C[C@@H]1CO2", "≤ 10000 nM"],
  ["FC(F)(F)c1nc(-c2ccc(CN(c3cnccn3)c3ccc4nncn4n3)s2)no1", "≤ 10000 nM"],
  ["Cc1ncncc1N(Cc1ccc(-c2noc(C(F)(F)F)n2)s1)c1cnccn1", "≤ 1000 nM"],
  ["FC(F)(F)c1cnnc(N(Cc2ccc(-c3noc(C(F)(F)F)n3)s2)c2ncccc2N2CCOCC2)c1", "> 10000 nM"],
  ["COCc1nccnc1N(Cc1ccc(-c2noc(C(F)(F)F)n2)s1)c1cnccn1", "≤ 10000 nM"]
]}
